Values were extracted from paper PMC7826789.

Give measured Percent Control for each item. Keep answers brief.
System: PIK3CA(C420R)
Conditions: Compound Concentration (nM):1000;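 further: KINOMEscan scanMAX binding as percent activity remaining versus control; lower means stronger binding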
Entry rule: numbers only, all in %.

Measured Percent Control, NS(=O)(=O)c1ccc(Nc2ncc(-c3ccccc3)o2)cc1 [GW572399X] : 100

Measured Percent Control, Cl.O=C(Nc1ccc(Oc2ccc3[nH]c(NC(=O)c4ccccc4)nc3c2)cc1)Nc1cc(C(F)(F)F)ccc1F [GW709042A] : 81

Measured Percent Control, CN(C)c1cc2c(Nc3ccc4c(cnn4Cc4ccccc4)c3)ncnc2cn1 [GW282974X] : 83

Measured Percent Control, NS(=O)(=O)c1ccc(N/N=C2\C(=O)Nc3ccc(Cl)cc32)cc1 [GW280670X] : 100

====

Give measured Percent Control for each item. Keep answers brief.
System: DAPK3
Settings: Compound Concentration (nM):1000
Entry rule: numbers only, all in %.

Measured Percent Control, COc1cc(C=NNc2ncnc3c2cnn3-c2ccccc2)ccc1O [GW513184X] : 100

Measured Percent Control, CCS(=O)(=O)c1ccc(OC)c(Nc2ncc(-c3cccc(OC)c3)o2)c1 [GW580509X] : 100

Measured Percent Control, COc1ccccc1-c1cc(/C=C2\C(=O)Nc3ncc(Br)cc32)cc(Br)c1O [GW442130X] : 88

Measured Percent Control, CC1=C(C(=O)Nc2ccc3[nH]ncc3c2)C(c2ccc(Cl)c(Cl)c2)CC(=O)N1 (stereo not shown) [GSK299115A] : 81

====

Give measured Percent Control for each item. Keep answers brief.
Test system: AAK1
Conditions: Compound Concentration (nM):1000
Entry rule: numbers only, all in %.

Tested on AAK1: CCS(=O)(=O)c1ccc(OC)c(Nc2ncc(-c3cccc(OC)c3)o2)c1 [GW580509X] . Observed Percent Control: 100

Tested on AAK1: NS(=O)(=O)c1ccc(N/N=C2\C(=O)Nc3ccc(C(=O)NCCc4c[nH]cn4)cc32)cc1 [GW300660X] . Observed Percent Control: 100

Tested on AAK1: Cl.O=C(Nc1ccc(Oc2ccc3[nH]c(NC(=O)c4ccco4)nc3c2)cc1)Nc1cc(C(F)(F)F)ccc1F [GW683134A] . Observed Percent Control: 100

====

Give measured Percent Control for each item. Keep answers brief.
Test system: TNNI3K
Conditions: Compound Concentration (nM):1000
Entry rule: numbers only, all in %.

Measured Percent Control, CC1=C(C(=O)Nc2ccc3[nH]ncc3c2)C(c2ccc3ccccc3c2)CC(=O)N1 (stereo not drawn) [GSK270822A] : 100

Measured Percent Control, C[C@@H](Oc1cc(-n2cnc3ccc(OC4CCN(C)CC4)cc32)sc1C(N)=O)c1ccccc1Cl [GSK579289A] : 100

Measured Percent Control, CCS(=O)(=O)c1ccc(OC)c(Nc2ncc(-c3cccc(OC)c3)o2)c1 [GW580509X] : 100

Measured Percent Control, Cl.O=C(O[C@H]1CN[C@H](C#Cc2cc3ncnc(Nc4ccc5c(cnn5Cc5ccccc5)c4)c3s2)C1)N1CCOCC1 [GSK200398A] : 55

Measured Percent Control, COc1ccc2[nH]c3c4[nH]c5ccc(OC)cc5c4c4c(c3c2c1)C(=O)NC4=O [GW296115X] : 90

Measured Percent Control, C/C(Nc1ccc(S(N)(=O)=O)cc1)=C1/C(=O)Nc2ccccc21 [GW335962X] : 69

Measured Percent Control, COc1ccc2cc(-c3c(-c4ccncc4)nc(-c4ccc(S(C)(=O)=O)cc4C)n3C)ccc2c1 [SB-633825] : 100

Measured Percent Control, NS(=O)(=O)c1ccc(N/N=C2\C(=O)Nc3ccc(C(=O)NCc4ccncc4)cc32)cc1 [GW300657X] : 96

Measured Percent Control, O=C(Nc1n[nH]c2nc(-c3ccc(O)cc3)c(Br)cc12)C1CC1 [SB-725317] : 100

Measured Percent Control, COc1cc(/C=N/Nc2ncnc3[nH]ncc23)ccc1O [GW578748X] : 100

Measured Percent Control, Cl.O=C(Nc1ccc(Oc2ccc3[nH]c(NC(=O)c4ccccc4)nc3c2)cc1)Nc1cc(C(F)(F)F)ccc1F [GW709042A] : 55

Measured Percent Control, COc1cc2ncnc(Nc3ccc4c(cnn4Cc4ccccc4)c3)c2cc1OC.Cl [GW282449A] : 100

====

Give measured Percent Control for each item. Keep answers brief.
Tested on: NEK5
Settings: Compound Concentration (nM):1000
Entry rule: numbers only, all in %.

Measured Percent Control, O=C(Nc1n[nH]c2nc(-c3ccc(O)cc3)c(Br)cc12)C1CC1 [SB-725317] : 100

Measured Percent Control, CN1CCN(C(=O)c2ccc(NC(=O)Nc3ccc(N(C)c4ccnc(Nc5ccc(CS(C)(=O)=O)cc5)n4)cc3)cc2)CC1.Cl [GW830263A] : 82

Measured Percent Control, COc1cccc(-c2c[nH]c3c(N/N=C/c4ccncc4)ncnc23)c1 [GW814408X] : 82

Measured Percent Control, COc1ccc2[nH]c3c4[nH]c5ccc(OC)cc5c4c4c(c3c2c1)C(=O)NC4=O [GW296115X] : 76

Measured Percent Control, Cl.O=C(Nc1ccc(Oc2ccc3[nH]c(NC(=O)c4ccco4)nc3c2)cc1)Nc1cc(C(F)(F)F)ccc1F [GW683134A] : 96

Measured Percent Control, COc1cccc(-n2ncc3c(N/N=C/c4ccncc4)ncnc32)c1 [GW784752X] : 100

Measured Percent Control, NS(=O)(=O)c1ccc(Nc2ncc(-c3ccccc3)o2)cc1 [GW572399X] : 100

====

System: ABL1(H396P)-nonphosphorylated
Conditions: Compound Concentration (nM):1000
# label = T if Percent Control < 70% else F

Does COc1ccc2c(-c3ccnc(Nc4cccc(OC(F)(F)F)c4)n3)cnn2n1 [GW810372X] have Percent Control strictly under 70%?
F

Does COc1ccc2[nH]c3c4[nH]c5ccc(OC)cc5c4c4c(c3c2c1)C(=O)NC4=O [GW296115X] have Percent Control strictly under 70%?
T

Does COc1cccc(-n2ncc3c(N/N=C/c4ccncc4)ncnc32)c1 [GW784752X] have Percent Control strictly under 70%?
T

Does Cl.O=S1CCN(Cc2ccc(-c3ccc4ncnc(Nc5ccc(OCc6ccccc6)c(F)c5)c4c3)o2)CC1 [GW576924A] have Percent Control strictly under 70%?
F

====

Tested on: RET(V804L)
Settings: Compound Concentration (nM):1000
Give measured Percent Control for each item. Keep answers brief.
Entry rule: numbers only, all in %.

Tested on RET(V804L): Cl.O=C(O[C@H]1CN[C@H](C#Cc2cc3ncnc(Nc4ccc5c(cnn5Cc5ccccc5)c4)c3s2)C1)N1CCOCC1 [GSK200398A] . Observed Percent Control: 100

Tested on RET(V804L): COc1ccccc1-c1cc(/C=C2\C(=O)Nc3ncc(Br)cc32)cc(Br)c1O [GW442130X] . Observed Percent Control: 91

Tested on RET(V804L): CC1=C(C(=O)Nc2ccc3[nH]ncc3c2)C(c2ccc3ccccc3c2)CC(=O)N1 (stereo not drawn) [GSK270822A] . Observed Percent Control: 46

Tested on RET(V804L): "CCc1ccc(Oc2nccc(-c3c(-c4ccc(F)cc4)ncn3C3CCNCC3)n2)cc1" . Observed Percent Control: 88

Tested on RET(V804L): COc1cc2ncnc(Nc3ccc4c(cnn4Cc4ccccc4)c3)c2cc1OC.Cl [GW282449A] . Observed Percent Control: 100

Tested on RET(V804L): NS(=O)(=O)c1ccc(N/N=C2\C(=O)Nc3ccc(C(=O)NCc4ccncc4)cc32)cc1 [GW300657X] . Observed Percent Control: 74

====

Give measured Percent Control for each item. Keep answers brief.
Tested on: CDKL5
Settings: Compound Concentration (nM):1000
Entry rule: numbers only, all in %.

Measured Percent Control, Cl.c1ccc(Cc2nc3ccc(Nc4ncnc5ccccc45)cc3[nH]2)cc1 [GR269666A] : 59

Measured Percent Control, C[C@@H](Oc1cc(-n2cnc3ccc(OC4CCN(C)CC4)cc32)sc1C(N)=O)c1ccccc1Cl [GSK579289A] : 100

Measured Percent Control, "COc1cc(C)c(N(C)C(=O)CN(C)C)cc1Nc1nc(Nc2cccc(F)c2C(N)=O)c2cc[nH]c2n1" : 44

Measured Percent Control, Nc1ncnc2occ(-c3ccc(NC(=O)Nc4cc(C(F)(F)F)ccc4F)cc3)c12 [GW770249X] : 100

Measured Percent Control, Cc1cc(O)cc(C)c1/C=C/c1cncc(C(N)=O)c1 [GW435821X] : 100

Measured Percent Control, COc1cc2ncn(-c3cc(O[C@H](C)c4ccccc4Cl)c(C(N)=O)s3)c2cc1OC [GSK237701A] : 100

Measured Percent Control, CCS(=O)(=O)c1ccc(OC)c(Nc2ncc(-c3cccc(F)c3)o2)c1 [GW621970X] : 60

====

Test system: KIT(V559D,T670I)
Conditions: Compound Concentration (nM):1000
Give measured Percent Control for each item. Keep answers brief.
Entry rule: numbers only, all in %.

Measured Percent Control, Nc1ncnc2occ(-c3ccc(NC(=O)Nc4cc(C(F)(F)F)ccc4F)cc3)c12 [GW770249X] : 0.5

Measured Percent Control, Cl.c1ccc(Cc2nc3ccc(Nc4ncnc5ccccc45)cc3[nH]2)cc1 [GR269666A] : 100

Measured Percent Control, NS(=O)(=O)c1ccc(N/N=C2\C(=O)Nc3ccc(-c4cnco4)cc32)cc1 [GW276655] : 100

Measured Percent Control, Cc1cc(O)cc(C)c1/C=C/c1cncc(C(N)=O)c1 [GW435821X] : 100

Measured Percent Control, NS(=O)(=O)c1ccc(N/N=C2\C(=O)Nc3ccc(Cl)cc32)cc1 [GW280670X] : 100

Measured Percent Control, CCc1ccc(Oc2nccc(-c3c(-c4ccc(F)cc4)ncn3C3CCNCC3)n2)cc1 [SB-242719] : 94

Measured Percent Control, COc1cc(C=NNc2ncnc3c2cnn3-c2ccccc2)ccc1O [GW513184X] : 65

Measured Percent Control, CC(C)COC(=O)c1ccc2c(c1)/C(=C/Nc1ccc(S(N)(=O)=O)cc1)C(=O)N2 [GW416981X] : 100

Measured Percent Control, COc1cc(C)c(N(C)C(=O)CN(C)C)cc1Nc1nc(Nc2cccc(F)c2C(N)=O)c2cc[nH]c2n1 [GSK2219385] : 100
